Biological target: T1, human PACAP27 (human, C-terminal leucine is amidated; 125I-labelled in Example 10)
T1 peptide: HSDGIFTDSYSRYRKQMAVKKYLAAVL
Assay: SPR, Ab immobilised
Description: [The procedure below names another target; the source says it served here with some conditions changed.] Binding affinities of monoclonal antibodies for human PACAP were estimated using SPR on the PROTEON™ XPR36 (Bio-Rad, Hercules, Calif.). Antibody was immobilized to the surface of general amine coupling (“GLC” or “GLM”) Chips (Bio-Rad, Hercules, Calif.). […]
Hi there, I'd appreciate the recorded kon for every entry that follows.
Unit M⁻¹ s⁻¹ implied. Number only.

Challenge: Would you mind telling me what kon value was observed for anti-PACAP antibody Ab12 (antibody, human IgG1, kappa, N297A, V domains shown, full-length rabbit/human chimeric antibody) VH: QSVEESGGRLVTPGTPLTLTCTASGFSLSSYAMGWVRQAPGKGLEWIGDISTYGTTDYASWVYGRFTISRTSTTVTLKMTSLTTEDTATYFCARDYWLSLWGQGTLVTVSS VL: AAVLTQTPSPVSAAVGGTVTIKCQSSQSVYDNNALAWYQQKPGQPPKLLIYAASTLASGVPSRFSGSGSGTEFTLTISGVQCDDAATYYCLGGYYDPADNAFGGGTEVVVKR ?
Response given: 290000

Challenge: Would you mind telling me what kon value was observed for anti-PACAP antibody Ab11 (antibody, human IgG1, kappa, N297A, V domains shown, full-length rabbit/human chimeric antibody) VH: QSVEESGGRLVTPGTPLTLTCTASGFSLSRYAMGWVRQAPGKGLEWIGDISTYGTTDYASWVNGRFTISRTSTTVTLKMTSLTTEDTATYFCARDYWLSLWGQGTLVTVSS VL: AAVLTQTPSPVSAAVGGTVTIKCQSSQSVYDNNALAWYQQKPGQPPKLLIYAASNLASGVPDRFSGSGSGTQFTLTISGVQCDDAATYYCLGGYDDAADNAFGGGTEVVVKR ?
Response given: 260000

Challenge: Would you mind telling me what kon value was observed for anti-PACAP antibody Ab17 (antibody, human IgG1, kappa, N297A, V domains shown, full-length rabbit/human chimeric antibody) VH: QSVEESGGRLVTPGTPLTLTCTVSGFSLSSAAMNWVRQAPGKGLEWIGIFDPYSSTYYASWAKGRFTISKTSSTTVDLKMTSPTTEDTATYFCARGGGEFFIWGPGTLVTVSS VL: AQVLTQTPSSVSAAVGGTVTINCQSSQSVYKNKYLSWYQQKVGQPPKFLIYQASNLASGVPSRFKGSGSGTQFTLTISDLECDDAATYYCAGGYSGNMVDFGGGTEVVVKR ?
Response given: 370000

Challenge: Would you mind telling me what kon value was observed for anti-PACAP antibody Ab6 (antibody, human IgG1, kappa, N297A, V domains shown, full-length rabbit/human chimeric antibody) VH: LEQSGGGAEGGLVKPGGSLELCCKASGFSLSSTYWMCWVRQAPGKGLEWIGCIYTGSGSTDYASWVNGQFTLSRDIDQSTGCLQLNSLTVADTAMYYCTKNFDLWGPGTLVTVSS VL: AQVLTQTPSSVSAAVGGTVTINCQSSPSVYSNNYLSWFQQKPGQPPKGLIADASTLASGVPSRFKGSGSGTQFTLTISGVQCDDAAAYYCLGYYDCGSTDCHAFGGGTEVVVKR ?
Response given: 390000

Challenge: Would you mind telling me what kon value was observed for anti-PACAP antibody Ab4.H (antibody, human IgG1, kappa, N297A, V domains shown, humanized form of Ab4, full length) VH: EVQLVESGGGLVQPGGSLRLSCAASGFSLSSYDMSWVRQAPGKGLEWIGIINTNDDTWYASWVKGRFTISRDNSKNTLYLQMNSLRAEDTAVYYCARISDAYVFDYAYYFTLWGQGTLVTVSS VL: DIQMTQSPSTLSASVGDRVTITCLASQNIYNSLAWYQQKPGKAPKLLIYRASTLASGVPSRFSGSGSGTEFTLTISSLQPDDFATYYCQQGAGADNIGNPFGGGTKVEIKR ?
Response given: 330000

Challenge: Would you mind telling me what kon value was observed for anti-PACAP antibody Ab4 (antibody, human IgG1, kappa, N297A, V domains shown, full-length rabbit/human chimeric antibody) VH: QSVEESGGRLVTPGTPLTLTCTVSGFSLSSYDMSWVRQAPGKGLEYIGIINTNDDTWYASWVKGRFTISKTSSTTVDLKMTSLTTEDTATYFCARISDAYVFDYAYYFTLWGQGTLVTVSS VL: ALVMTQTPSSVSAAVGGTVTINCLASQNIYNSLAWYQQKPGQPPKLLIYRASTLASGVSSRFKGSGSGTQFTLTISGVECADAATYYCQQGAGADNIGNPFGGGTEVVVKR ?
Response given: 390000

Challenge: Would you mind telling me what kon value was observed for anti-PACAP antibody Ab9 (antibody, human IgG1, kappa, N297A, V domains shown, full-length rabbit/human chimeric antibody) VH: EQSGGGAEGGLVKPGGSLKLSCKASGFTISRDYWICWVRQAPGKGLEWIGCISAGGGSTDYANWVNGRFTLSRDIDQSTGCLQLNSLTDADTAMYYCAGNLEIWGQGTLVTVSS VL: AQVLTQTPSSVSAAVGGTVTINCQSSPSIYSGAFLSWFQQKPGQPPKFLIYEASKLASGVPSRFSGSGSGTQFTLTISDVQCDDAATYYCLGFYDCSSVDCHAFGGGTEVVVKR ?
Response given: 960000

Challenge: Would you mind telling me what kon value was observed for anti-PACAP antibody Ab1.H (antibody, human IgG1, kappa, N297A, V domains shown, humanized form of Ab1, full length) VH: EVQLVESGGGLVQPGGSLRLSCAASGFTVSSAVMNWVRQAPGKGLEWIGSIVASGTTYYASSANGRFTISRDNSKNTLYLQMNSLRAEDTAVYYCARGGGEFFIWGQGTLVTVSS VL: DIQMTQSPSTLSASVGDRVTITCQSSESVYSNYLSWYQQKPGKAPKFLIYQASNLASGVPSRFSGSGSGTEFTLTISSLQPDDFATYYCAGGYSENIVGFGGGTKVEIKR ?
Response given: 760000

Challenge: Would you mind telling me what kon value was observed for anti-PACAP antibody Ab19 (antibody, human IgG1, kappa, N297A, V domains shown, full-length rabbit/human chimeric antibody) VH: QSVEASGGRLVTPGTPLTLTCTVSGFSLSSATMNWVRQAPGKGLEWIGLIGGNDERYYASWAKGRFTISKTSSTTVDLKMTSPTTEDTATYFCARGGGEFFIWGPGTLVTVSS VL: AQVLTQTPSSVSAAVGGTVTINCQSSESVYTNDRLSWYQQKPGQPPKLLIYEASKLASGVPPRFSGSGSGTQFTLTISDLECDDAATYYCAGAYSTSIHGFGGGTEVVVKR ?
Response given: 420000

Challenge: Would you mind telling me what kon value was observed for anti-PACAP antibody Ab7 (antibody, human IgG1, kappa, N297A, V domains shown, full-length rabbit/human chimeric antibody) VH: QSVEESGGRLVTPGTPLTLTCTASGIDLSGYAMGWVRQAPGKGLEWIGDISTYGTTDYASWVNGRFTISRTSTTVTLKMTSLTTEDTATYFCARDYWLSLWGPGTLVTVSS VL: AAVLTQTPSPVSAAVGGTVTIKCQSSQSVYDNNALAWYQQKPGQPPKLLIYAASTLASGVPSRFKGSGSGTQFTLTINGVQCDDAATYYCLGGYDDPADNAFGGGTEVVVKR ?
Response given: 230000

From: patent US20190233498A1
